target: rat brain synaptosomal membranes (Rattus norvegicus, UniProt P23978); construct: Synaptosomal membranes were prepared using the whole brain without cerebellum, brainstem, or olfactory bulb; synaptosomal membranes; test: Saturation binding of [3H]E2730 in rat brain synaptosomal membranes; settings: [3H]E2730, Scatchard plot
pKd: −log10 of the molar value.
quantityMeasured: pKd

[[record]]
compound = "NS(=O)(=O)N[C@H]1c2c(F)cc(F)cc2CC1(F)F [E2730]"
quantitymeasured = "pKd"
resultvalue = 6.26


---

target: hGAT1 (Homo sapiens, UniProt P30531); assay: [3H]GABA uptake in hGAT1 stably expressing HEK293 cells; conditions: 50 μM [3H]GABA
Sequence (P30531 whole entry): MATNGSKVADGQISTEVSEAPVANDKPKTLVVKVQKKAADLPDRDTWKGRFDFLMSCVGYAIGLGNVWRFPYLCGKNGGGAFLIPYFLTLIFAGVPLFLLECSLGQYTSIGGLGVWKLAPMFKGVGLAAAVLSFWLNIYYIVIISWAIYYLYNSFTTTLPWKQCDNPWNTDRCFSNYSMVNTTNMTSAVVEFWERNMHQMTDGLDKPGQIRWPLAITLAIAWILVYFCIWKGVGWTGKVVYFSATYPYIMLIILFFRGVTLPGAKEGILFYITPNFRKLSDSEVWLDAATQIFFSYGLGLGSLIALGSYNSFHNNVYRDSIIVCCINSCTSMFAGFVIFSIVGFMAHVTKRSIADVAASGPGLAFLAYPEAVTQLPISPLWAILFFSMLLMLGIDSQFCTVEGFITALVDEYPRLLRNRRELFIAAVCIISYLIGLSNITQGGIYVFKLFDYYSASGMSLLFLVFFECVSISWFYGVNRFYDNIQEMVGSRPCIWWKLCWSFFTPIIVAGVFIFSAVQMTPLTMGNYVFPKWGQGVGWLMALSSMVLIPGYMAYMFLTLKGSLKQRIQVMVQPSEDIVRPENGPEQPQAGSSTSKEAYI
quantityMeasured: IC50 (nM)

[[record]]
smilesnotation = "NS(=O)(=O)N[C@H]1c2c(F)cc(F)cc2CC1(F)F"
resultvalue = 1100


---

Target: hGAT3 (Homo sapiens, UniProt P48066)
Construct: expressed in transfected cells; host or cells: HEK293
Sequence (P48066 1-632): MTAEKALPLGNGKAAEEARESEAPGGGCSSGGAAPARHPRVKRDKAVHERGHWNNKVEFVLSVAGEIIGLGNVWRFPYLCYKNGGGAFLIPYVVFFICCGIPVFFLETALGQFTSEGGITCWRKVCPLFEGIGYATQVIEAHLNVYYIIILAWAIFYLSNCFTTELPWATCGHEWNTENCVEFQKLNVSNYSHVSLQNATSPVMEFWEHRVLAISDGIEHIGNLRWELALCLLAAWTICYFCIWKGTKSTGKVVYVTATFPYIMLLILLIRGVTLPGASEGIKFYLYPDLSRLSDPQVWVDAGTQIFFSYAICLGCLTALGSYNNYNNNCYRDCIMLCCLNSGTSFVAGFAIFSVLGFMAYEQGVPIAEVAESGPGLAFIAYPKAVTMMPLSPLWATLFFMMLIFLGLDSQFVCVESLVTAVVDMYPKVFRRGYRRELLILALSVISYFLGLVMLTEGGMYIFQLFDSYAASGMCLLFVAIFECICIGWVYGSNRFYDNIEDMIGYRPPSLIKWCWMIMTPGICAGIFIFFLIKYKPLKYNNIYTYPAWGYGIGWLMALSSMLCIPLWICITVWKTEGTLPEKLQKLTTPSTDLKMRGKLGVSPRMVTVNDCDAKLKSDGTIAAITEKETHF
Assay: [3H]GABA uptake in hGAT3 stably expressing HEK293 cells
Type: cell-based
Conditions: 50 μM [3H]GABA
quantityMeasured: IC50

[[record]]
smilesnotation = "NS(=O)(=O)N[C@H]1c2c(F)cc(F)cc2CC1(F)F"
assaysystem = "hGAT3 (Homo sapiens, UniProt P48066)"
quantitymeasured = "IC50"
resultvalue = "> 1000 µM"

